Test system: Rattus norvegicus
Assay: Analysis of lipid-soluble radioactivity in liver 0.5 hour after iv administration of [125I]-labeled 2-Oleoyl 1,3-disubstituted Triacylglycerols expressed as %parent compound (by TLC with authentic [125I]-labeled standard) from rat
Format: ADME, organism-based
Conditions: in vivo
Quick rule: Lipid-soluble radioactivity of at least 90 means criterion met, below that means criterion not met.

Sample answers from the record:
> print(dat)
                                   compound              label
1  CCCCCCCC/C=C/CCCCCCCC(=O)OC(COC(=O)CCCCc1c(I)cc(I)c(N)c1I)COC(=O)CCCCc1c(I)cc(I)c(N)c1I      criterion met
2  CCCCCCCC/C=C/CCCCCCCC(=O)OC(COC(=O)Cc1c(I)cc(I)c(N)c1I)COC(=O)Cc1c(I)cc(I)c(N)c1I  criterion not met
3  CCCCCCCC/C=C/CCCCCCCC(=O)OC(COC(=O)CCCCCc1c(I)cc(I)c(N)c1I)COC(=O)CCCCCc1c(I)cc(I)c(N)c1I      criterion met

Shifting focus to the compound that follows.
Q) # check: Lipid-soluble radioactivity of CCCCCCCC/C=C/CCCCCCCC(=O)OC(COC(=O)C(CC)Cc1c(I)cc(I)c(N)c1I)COC(=O)C(CC)Cc1c(I)cc(I)c(N)c1I (stereo not given) is greater than or equal to 90
A) criterion not met

* * *

Test system: Rattus norvegicus
Experiment: Analysis of lipid-soluble radioactivity in liver 0.5 hour after iv administration of [125I]-labeled 2-Oleoyl 1,3-disubstituted Triacylglycerols and represented as % CHCl3/CH3OH from rat
Assay type: ADME, organism-based
Settings: in vivo
Would you please tag the item 1 (yes) when its Lipid-soluble radioactivity is 90 or above, and 0 (no) when it is below?

Worked cases, answers included:
> print(dat)
                                   compound    label
1  CCCCCCCC/C=C/CCCCCCCC(=O)OC(COC(=O)CCCCCCc1c(I)cc(I)c(N)c1I)COC(=O)CCCCCCc1c(I)cc(I)c(N)c1I   0 (no)
2  CCCCCCCC/C=C/CCCCCCCC(=O)OC(COC(=O)C(CC)Cc1c(I)cc(I)c(N)c1I)COC(=O)C(CC)Cc1c(I)cc(I)c(N)c1I (stereo not given)  1 (yes)

Next up:
Q) Does the compound CCCCCCCC/C=C/CCCCCCCC(=O)OC(COC(=O)Cc1c(I)cc(I)c(N)c1I)COC(=O)Cc1c(I)cc(I)c(N)c1I have recorded Lipid-soluble radioactivity that is 90 or more?
A) 0 (no)

* * *

Below, each entry is listed alongside its reported Radioactivity.
Test system: Rattus norvegicus
Assay: Polyacrylamide Gel Electrophoresis (PAGE) to determined the concentration of below albumin(BA) in rats after iv administration of [125I]-labeled 2-Oleolyl 1,3-disubstituted triglycerols was reported
Assay type: ADME, organism-based
Conditions: in vivo
Provide the reading as a plain figure in %.

Known Radioactivity results, listed for orientation:
> print(dat)
                                   compound  quantity.kind  unit.name  measurement
1  CCCCCCCC/C=C/CCCCCCCC(=O)OC(COC(=O)CCCCc1c(I)cc(I)c(N)c1I)COC(=O)CCCCc1c(I)cc(I)c(N)c1I  Radioactivity          %          0.1
2  CCCCCCCC/C=C/CCCCCCCC(=O)OC(COC(=O)Cc1c(I)cc(I)c(N)c1I)COC(=O)Cc1c(I)cc(I)c(N)c1I  Radioactivity          %          1.1
3  CCCCCCCC/C=C/CCCCCCCC(=O)OC(COC(=O)CCCCCc1c(I)cc(I)c(N)c1I)COC(=O)CCCCCc1c(I)cc(I)c(N)c1I  Radioactivity          %          0.6

Q) Give its Radioactivity value. Item: CCCCCCCC/C=C/CCCCCCCC(=O)OC(COC(=O)CCCCCCc1c(I)cc(I)c(N)c1I)COC(=O)CCCCCCc1c(I)cc(I)c(N)c1I
A) 5.1

Q) Then this compound: CCCCCCCC/C=C/CCCCCCCC(=O)OC(COC(=O)C(CC)Cc1c(I)cc(I)c(N)c1I)COC(=O)C(CC)Cc1c(I)cc(I)c(N)c1I (stereo not given)
A) 1.5

The measurements presented in this section are drawn from ChEMBL document CHEMBL1128242.
